test: Apparent permeability from apical to basolateral side in human Caco2 cells; format: ADME, cell-based; conditions: caco-2
experimental_readout: Papp (×10⁻⁶ cm/s)

smiles	experimental_readout	measured_number
O=[N+]([O-])c1cn2c(n1)OC[C@@H](OCc1ccc(N3CCOCC3)nc1)C2	Papp	37.13
O=[N+]([O-])c1cn2c(n1)OC[C@@H](OCc1ccc(OC(F)(F)F)cc1)C2	Papp	31.58
O=C1CSCCN1c1ccc(CO[C@@H]2COc3nc([N+](=O)[O-])cn3C2)cc1	Papp	39.56
O=[N+]([O-])c1cn2c(n1)OC[C@@H](OCc1ccc(N3CCCCC3)c(F)c1)C2	Papp	35.46
O=C1CSCCN1c1ccc(CO[C@@H]2COc3nc([N+](=O)[O-])cn3C2)cn1	Papp	40
